Source of measurements: ChEMBL document CHEMBL1158511

Listed compounds paired with reported EC50
Molecular target: 5-hydroxytryptamine receptor 2B (Homo sapiens)
Sequence (P41595 whole entry): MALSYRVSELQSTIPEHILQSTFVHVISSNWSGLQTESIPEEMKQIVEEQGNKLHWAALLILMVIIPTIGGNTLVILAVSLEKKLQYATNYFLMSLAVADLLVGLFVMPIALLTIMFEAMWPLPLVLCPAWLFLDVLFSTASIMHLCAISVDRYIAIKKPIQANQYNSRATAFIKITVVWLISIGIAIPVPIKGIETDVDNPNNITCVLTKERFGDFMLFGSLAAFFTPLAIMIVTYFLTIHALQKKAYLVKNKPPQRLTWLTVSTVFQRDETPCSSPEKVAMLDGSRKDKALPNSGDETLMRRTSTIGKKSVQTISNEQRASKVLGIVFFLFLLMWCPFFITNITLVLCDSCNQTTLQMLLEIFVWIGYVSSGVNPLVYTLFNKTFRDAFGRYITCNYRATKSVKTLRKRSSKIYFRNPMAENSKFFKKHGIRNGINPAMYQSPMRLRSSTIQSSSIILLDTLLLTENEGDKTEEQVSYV
Experiment: Agonist activity at human recombinant 5HT2B receptor expressed in HEK293E cells by FLIPR assay

compound: Cc1ccc2c(c1)N1CCNCC1NC2=O (single isomer, unassigned)
experimentalValue: > 10 µM
//
compound: Cc1ccc2c(c1)C(=O)NC1CNCCN21 (single isomer, unassigned)
experimentalValue: > 10 µM

Then there is this compound:
query: Note down EC50 recorded for O=C1NC2CNCCN2c2cccc(Cl)c21 (stereo not drawn)
result: > 10 µM

###

Target: 5-hydroxytryptamine receptor 2A (Homo sapiens, UniProt P28223)
Sequence (P28223 whole entry): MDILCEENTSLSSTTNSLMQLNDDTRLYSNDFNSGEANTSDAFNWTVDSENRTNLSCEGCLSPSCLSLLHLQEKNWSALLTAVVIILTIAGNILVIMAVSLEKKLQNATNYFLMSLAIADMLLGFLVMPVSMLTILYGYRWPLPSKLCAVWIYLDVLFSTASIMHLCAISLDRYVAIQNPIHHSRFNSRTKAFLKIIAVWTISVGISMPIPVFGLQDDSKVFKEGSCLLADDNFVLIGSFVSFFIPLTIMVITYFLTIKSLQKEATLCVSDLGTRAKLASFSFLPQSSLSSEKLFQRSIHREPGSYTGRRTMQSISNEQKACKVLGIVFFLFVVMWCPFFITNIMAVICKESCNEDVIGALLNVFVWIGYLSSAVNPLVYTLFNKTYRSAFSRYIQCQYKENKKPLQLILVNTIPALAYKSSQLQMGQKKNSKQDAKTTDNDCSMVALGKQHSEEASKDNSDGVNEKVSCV
Test: Agonist activity at human recombinant 5HT2A receptor expressed in HEK293E cells by FLIPR assay
Each entry below carries its reported EC50.

Below, each entry is followed by its recorded EC50 result.
compound: O=C1NC2CNCCN2c2cccc(Cl)c21 (stereo unspecified)
experimentalValue: > 10 µM

compound: Cc1cccc2c1N1CCNCC1NC2=O (stereo unspecified)
experimentalValue: > 10 µM

compound: Cc1cccc2c1C(=O)NC1CNCCN21 (single isomer, unassigned; (+))
experimentalValue: > 10 µM

compound: Cc1ccc2c(c1)C(=O)NC1CNCCN21 (single isomer, unassigned)
experimentalValue: > 0.705 µM

compound: Cc1ccc2c(c1)N1CCNCCC1NC2=O (stereo in doubt; (-)-3c)
experimentalValue: > 10 µM

query: Report measured EC50; entry is Cc1ccc2c(c1)N1CCNCC1NC2=O (single isomer, unassigned)
result: > 1 µM

###

Entries annotated with measured pEC50
Target: 5-hydroxytryptamine receptor 2C (Homo sapiens)
Sequence (P28335 whole entry): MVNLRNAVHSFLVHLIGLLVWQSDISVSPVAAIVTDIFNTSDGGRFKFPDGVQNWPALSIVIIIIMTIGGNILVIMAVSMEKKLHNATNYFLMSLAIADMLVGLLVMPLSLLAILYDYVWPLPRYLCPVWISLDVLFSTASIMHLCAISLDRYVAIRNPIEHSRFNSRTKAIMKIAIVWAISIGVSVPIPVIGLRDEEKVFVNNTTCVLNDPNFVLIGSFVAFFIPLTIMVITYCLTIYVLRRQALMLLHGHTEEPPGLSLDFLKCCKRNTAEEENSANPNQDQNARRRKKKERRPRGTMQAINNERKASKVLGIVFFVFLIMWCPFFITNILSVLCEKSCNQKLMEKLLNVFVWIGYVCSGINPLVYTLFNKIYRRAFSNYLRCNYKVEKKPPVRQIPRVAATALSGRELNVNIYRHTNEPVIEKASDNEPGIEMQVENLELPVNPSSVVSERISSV
Experiment: Agonist activity at human recombinant 5HT2C receptor expressed in HEK293E cells by FLIPR assay
Bear in mind: pEC50 is minus log10 of a mol/L concentration; give just that figure.

Guide cases for pEC50, answers given:
molecule: O=C1NC2CNCCN2c2ccc(Cl)cc21 (single isomer, unassigned)
pEC50: 6.96
//
molecule: Cc1ccc2c(c1)N1CCNCCC1NC2=O (stereo in doubt; (-)-3c)
pEC50: 7.04
//
molecule: Cc1ccc2c(c1)C(=O)NC1CNCCN21 (single isomer, unassigned)
pEC50: 6.88

query: Report value only: pEC50, 5-hydroxytryptamine receptor 2C (Homo sapiens), O=C1NC2CNCCN2c2ccccc21 (single isomer, unassigned)
result: 6.86

query: Consider the molecule O=C1NC2CNCCN2c2cccc(C(F)(F)F)c21 (single isomer, unassigned) tested on 5-hydroxytryptamine receptor 2C (Homo sapiens); state its pEC50.
result: 7.04
